Hey, just so you know, these numbers are from ChEMBL document CHEMBL1155317.

experiment: Inhibition of HIV1 NL4-3 gp160 assessed as inhibition of interaction between gp120 and host CD4 receptor by cell-cell fusion assay; set-up: species or system Human immunodeficiency virus 1
pIC50: −log10 of the molar value.
Lab note: anything with pIC50 at or over 7 counts as MET; the rest go in NOT MET.

{"columns": ["compound", "cat"],
 "data": [
  ["CNC(=O)c1ccc(O[C@@H](C)C(=O)N2CCN(C(=O)c3ccccc3)C[C@H]2C)c2ccncc12", "NOT MET"],
  ["CNC(=O)c1cc(OC)c(O[C@@H](C)C(=O)N2CCN(c3n[nH]c4ccccc34)C[C@H]2C)cn1", "MET"]
]}

Threshold query (pIC50 >= 7) on CNC(=O)c1cc(OC)c(O[C@@H](C)C(=O)N2CCN(c3nccc4ncccc34)C[C@H]2C)cn1 MET

Reported pIC50 reaches at least 7 for CC(Oc1cccc2nccnc12)C(=O)N1CCN(C(=O)c2ccccc2)C[C@H]1C (some centres undefined) ? NOT MET

Given CNC(=O)c1ccc(O[C@@H](C)C(=O)N2CCN(C(=O)c3ccccc3)C[C@H]2C)c2c(C)n[nH]c12 , state whether its pIC50 is at least 7. NOT MET

Check if pIC50 >= 7 (inclusive). Item: CNc1ccc2c(O[C@@H](C)C(=O)N3CCN(C(=O)c4ccccc4)C[C@H]3C)cccc2n1 MET

----------
assay: Inhibition of HIV1 NL4-3 gp160 assessed as inhibition of interaction between gp120 and host CD4 receptor by cell-cell fusion assay; design: species or system Human immunodeficiency virus 1
List of pIC50 values.
Note on pIC50: it is the negative log10 of concentration, concentration in mol/L.

{"columns": ["molecule", "recorded-metric", "reported-measurement"],
 "data": [
  ["CNC(=O)c1nccc2c(O[C@@H](C)C(=O)N3CCN(C(=O)c4ccccc4)C[C@H]3C)cccc12", "pIC50", 7.68],
  ["CNC(=O)c1nccc2c(O[C@@H](C)C(=O)N3CCN(C(=O)c4ccccc4)C[C@H]3C)ccc(F)c12", "pIC50", 7.51]
]}

Data request, read-out pIC50, for CC(Oc1cccc2ccncc12)C(=O)N1CCN(C(=O)c2ccccc2)C[C@H]1C (some centres undefined) 6.24

----------
experiment: Inhibition of HIV1 NL4-3 gp160 assessed as inhibition of interaction between gp120 and host CD4 receptor by cell-cell fusion assay; parameters: species or system Human immunodeficiency virus 1
Category key, based on recorded IC50: lower segment = under 60 nM, middle segment = from 60 nM up to 400 nM, upper segment = 400 nM and over

{"columns": ["compound", "cat"],
 "data": [
  ["CNC(=O)c1cc(OC)c(O[C@@H](C)C(=O)N2CCN(c3nccc4[nH]cnc34)C[C@H]2C)cn1", "lower segment"],
  ["CNC(=O)c1cc(OC)c(O[C@@H](C)C(=O)N2CCN(c3nccc4[nH]ncc34)C[C@H]2C)cn1", "lower segment"],
  ["CNC(=O)c1cc(OC)c(O[C@@H](C)C(=O)N2CCN(c3ncccn3)C[C@H]2C)cn1", "middle segment"],
  ["Cc1nn(C)c2cccc(OC(C)C(=O)N3CCN(C(=O)c4ccccc4)C[C@H]3C)c12 (some centres undefined)", "lower segment"],
  ["Cc1nc2c(OC(C)C(=O)N3CCN(C(=O)c4ccccc4)C[C@H]3C)cccc2[nH]1 (some centres undefined)", "upper segment"],
  ["CC(Oc1cccc2cccnc12)C(=O)N1CCN(C(=O)c2ccccc2)C[C@H]1C (some centres undefined)", "upper segment"]
]}

Which bin should I file CNC(=O)c1cc(OC)c(O[C@@H](C)C(=O)N2CCN(c3nccc4ccccc34)C[C@H]2C)cn1 under? lower segment

Class for CNC(=O)c1cc(OC)c(O[C@@H](C)C(=O)N2CCN(c3nccn3CC3CC3)C[C@H]2C)cn1 ? upper segment

Bin this entry: CC(Oc1cccc2c(=O)[nH]ccc12)C(=O)N1CCN(C(=O)c2ccccc2)C[C@H]1C (some centres undefined) middle segment

Just checking, what class would you give CC(Oc1cccc2cnccc12)C(=O)N1CCN(C(=O)c2ccccc2)C[C@H]1C (some centres undefined) here? middle segment

Class label required: C[C@H](Oc1cccc2nc(N(C)C)ccc12)C(=O)N1CCN(C(=O)c2ccccc2)C[C@H]1C upper segment

Where would CNC(=O)c1cc(OC)c(O[C@@H](C)C(=O)N2CCN(c3ncnc4[nH]cnc34)C[C@H]2C)cn1 land among the classes by reported IC50? middle segment

Note: place this compound into its band. Item: CC(Oc1ccnc2ccccc12)C(=O)N1CCN(C(=O)c2ccccc2)C[C@H]1C (some centres undefined) upper segment
